Literature pIC50 values, system: Proto-oncogene tyrosine-protein kinase receptor Ret (Homo sapiens, UniProt P07949).
Sequence (P07949 whole entry): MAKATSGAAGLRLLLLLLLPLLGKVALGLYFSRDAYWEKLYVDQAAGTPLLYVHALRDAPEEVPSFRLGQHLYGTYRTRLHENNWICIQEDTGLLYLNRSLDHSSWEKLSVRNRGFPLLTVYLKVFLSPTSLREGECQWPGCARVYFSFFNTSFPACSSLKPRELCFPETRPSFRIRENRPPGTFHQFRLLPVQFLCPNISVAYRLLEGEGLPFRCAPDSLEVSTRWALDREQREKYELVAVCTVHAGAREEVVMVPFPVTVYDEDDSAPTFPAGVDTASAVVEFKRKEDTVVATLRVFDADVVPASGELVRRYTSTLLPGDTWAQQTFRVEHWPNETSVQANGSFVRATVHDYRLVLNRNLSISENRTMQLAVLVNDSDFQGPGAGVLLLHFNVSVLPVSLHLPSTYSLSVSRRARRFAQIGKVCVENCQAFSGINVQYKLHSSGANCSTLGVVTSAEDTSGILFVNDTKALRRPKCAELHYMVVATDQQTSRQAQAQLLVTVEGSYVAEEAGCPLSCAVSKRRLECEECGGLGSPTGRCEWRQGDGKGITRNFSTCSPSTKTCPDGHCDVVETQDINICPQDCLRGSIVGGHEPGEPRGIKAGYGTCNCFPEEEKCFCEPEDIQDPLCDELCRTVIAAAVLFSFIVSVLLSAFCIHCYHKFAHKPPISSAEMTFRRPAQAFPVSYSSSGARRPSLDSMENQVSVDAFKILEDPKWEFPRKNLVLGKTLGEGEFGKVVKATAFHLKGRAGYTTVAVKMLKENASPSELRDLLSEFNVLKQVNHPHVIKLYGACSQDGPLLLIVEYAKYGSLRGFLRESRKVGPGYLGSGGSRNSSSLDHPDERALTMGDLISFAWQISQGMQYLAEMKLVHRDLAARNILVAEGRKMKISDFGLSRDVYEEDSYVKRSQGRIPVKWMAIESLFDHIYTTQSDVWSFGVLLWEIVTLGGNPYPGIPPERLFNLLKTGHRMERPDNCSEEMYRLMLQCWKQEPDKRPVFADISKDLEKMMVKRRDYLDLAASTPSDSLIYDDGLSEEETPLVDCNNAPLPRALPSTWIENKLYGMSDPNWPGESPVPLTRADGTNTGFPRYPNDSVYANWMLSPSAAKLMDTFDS
Bear in mind: pIC50 is minus log10 of a mol/L concentration; give just that figure.

# annotated cases, reported pIC50 shown
COc1ccc(CN2C3CC2CN(c2ccc(-c4nc(-c5cnn(C)c5)cc5ncccc45)cn2)C3)cc1 :: 8.12
CCOC(=O)c1nc2ccc(Nc3cc(C)[nH]n3)nn2c1C#Cc1cc(C(=O)Nc2cc(-n3cnc(C)c3)cc(C(F)(F)F)c2)ccc1C :: 6.04
Cn1cc(-c2cc3ncccc3c(-c3ccc(N4CC5CC(C4)N5Cc4ccc(F)nc4)nc3)n2)cn1 :: 7.77

Now examine the next entry.
Problem: Entry `CCCS(=O)(=O)Nc1ccc(F)c(C(=O)c2c[nH]c3ncc(-c4ccc(Cl)cc4)cc23)c1F` , system Proto-oncogene tyrosine-protein kinase receptor Ret (Homo sapiens, UniProt P07949): what pIC50 was measured?
Result: 8.32
